Where do these numbers come from? They come from patent US9452997B2.

Reported values of pIC50 for individual entries
Test Target: Recombinant autotaxin (Homo sapiens)
Experiment Description: Autotaxin assay (Amplex Red, LPC substrate)
Particulars: recombinant autotaxin, LPC substrate, Amplex Red detection; values given as upper bounds
pIC50: −log10 of the molar value.

Solved entries (count: 8):
O=C(OCc1cn(-c2ccc(Cl)cc2)nn1)N1CCN(C2CCN(C(=O)c3ccc4[nH]nnc4c3)CC2)CC1 [Compound 131] | > 4.52
O=C(OCc1ccc(Cl)cc1F)N1CCC(N2CCN(C(=O)c3ccc4[nH]nnc4c3)CC2)CC1 [Compound 62] | > 6.00
O=C(Cc1ccc2[nH]nnc2c1)N1CCC(N2CCN(C(=O)Cc3ccc(C(F)(F)F)cc3)CC2)CC1 [Compound 138] | > 5.00
O=C(OCc1ccc(Cl)c(F)c1)N1CCN(C2CCN(C(=O)c3ccc4[nH]nnc4c3)CC2)CC1 [Compound 117] | > 6.00
O=C(OCc1ccc(C(F)(F)F)cc1)N1CCN(C2CCN(C(=O)c3ccc4[nH]c(=O)sc4c3)CC2)CC1 [Compound 126] | > 5.00
O=C(OCc1cc(F)c(F)c(Cl)c1)N1CCN(C2CCN(C(=O)c3ccc4[nH]nnc4c3)CC2)CC1 [Compound 116] | > 6.00
O=C(Cc1ccc(Cl)cc1)C(=O)N1CCN(C2CCN(C(=O)c3ccc4[nH]nnc4c3)CC2)CC1 [Compound 123] | > 5.00
O=C(/C=C/c1c[nH]cn1)N1CCN(C2CCN(C(=O)CCc3ccc(C(F)(F)F)cc3)CC2)CC1 [Compound 58] | > 5.00

Note: attention shifts to another entry.
Would you mind telling me what pIC50 value was observed for O=C(OCc1cc(F)cc(C(F)(F)F)c1)N1CCC(N2CCN(C(=O)c3ccc4[nH]nnc4c3)CC2)CC1 [Compound 75] ?
> 6.00
